- assayed_system: HLA-A*02:01 molecule (Homo sapiens, UniProt P04439, D140Y/D185E/D98H/E176V/E277Q/G131W/G231S/I119V/I121R/I166T/I218V/L300P/L318F/N151K/N90K/P208A/P217A/Q86G/Q94H/R138H/R169H/T345S)
- test_protocol: Binding experiment of peptide to HLA-A*02:01 molecule (T2 cells, flow cytometry)
- assay_conditions: T2 cells, 37° C. 4 hours; negative values as printed (apparently log Kd)
Ends that are not written are not given here.
Please enter 1.0 where Binding Experiment Data To A*02:01 is greater than or equal to -5, and 0.0 where it is lower.

primary_sequence | label_class
AMTKDNNLL [SEQ ID NO: 9] | 0.0
NQPGVLIQV [SEQ ID NO: 14] | 0.0
AQIHDLVLV [SEQ ID NO: 12] | 0.0
MVLTKMKEI [SEQ ID NO: 6] | 1.0
ITRARFEEL [SEQ ID NO: 10] | 1.0

Kindly determine if Binding Experiment Data To A*02:01 recorded for SVTNAVITV [SEQ ID NO: 15] is above or exactly -5. 1.0

Reported Binding Experiment Data To A*02:01 reaches at least -5 for LLLDVAPLS [SEQ ID NO: 8] ? 0.0

Tell me whether Binding Experiment Data To A*02:01 is at least -5 here: NLLGRFELS [SEQ ID NO: 11] 1.0

----------
- assayed_system: HLA-A*02:06 molecule (Homo sapiens, UniProt P04439, D140Y/D185E/D98H/E176V/E277Q/F33Y/G131W/G231S/I119V/I121R/I166T/I218V/L300P/L318F/N151K/N90K/P208A/P217A/Q86G/Q94H/R138H/R169H/T345S)
- Construct: expressed in transfected cells; host or cells: RA2.6 cells (mouse TAP-deficient RMAS transfected with HLA-A*02:06 cDNA, Kochi University)
- test_protocol: Binding experiment of peptide to HLA-A*02:06 molecule (RA2.6 cells, flow cytometry)
- assay_conditions: RA2.6 cells; negative values as printed (apparently log Kd)
Ends that are not written are not given here.
Here, each record is paired with measured Binding Experiment Data To A*02:06 data.
Kindly provide the number alone.

Field: example entries. Status: answers known.
primary_sequence | observed_property | assay_value
ITRARFEEL [SEQ ID NO: 10] | Binding Experiment Data To A*02:06 | −5.58
LLLDVAPLS [SEQ ID NO: 8] | Binding Experiment Data To A*02:06 | −6.171
NLLGRFELS [SEQ ID NO: 11] | Binding Experiment Data To A*02:06 | −5.175

Let me know recorded Binding Experiment Data To A*02:06 for VLVGGSTRI [SEQ ID NO: 5] , thanks. −5.07

Give a short answer stating reported Binding Experiment Data To A*02:06 for MVLTKMKEI [SEQ ID NO: 6] . −5.533

Find the measured Binding Experiment Data To A*02:06 of AMTKDNNLL [SEQ ID NO: 9] and report it. −4.276

Please list Binding Experiment Data To A*02:06 recorded for the sequence GVPQIEVTF [SEQ ID NO: 1] −5.13

Supply measured Binding Experiment Data To A*02:06 of SVTNAVITV [SEQ ID NO: 15] in your reply. −5.594

Give Binding Experiment Data To A*02:06 for the following sequence: YAFNMKSAV [SEQ ID NO: 13] −5.021

Input YGAAVQAAI [SEQ ID NO: 7] , output reported Binding Experiment Data To A*02:06. −5.372

Given KLLQDFFNG [SEQ ID NO: 4] , respond with its Binding Experiment Data To A*02:06. −5.268

Given NQPGVLIQV [SEQ ID NO: 14] , respond with its Binding Experiment Data To A*02:06. −6.417
